tgt: Flt-4 (baculovirus expressed human Flt-4 kinase domain D725-R1298) (Homo sapiens)
Construct: human Flt-4 kinase domain D725-R1298; host or cells: baculovirus expression
Sequence (P35916 725-1298 isoform P35916-1): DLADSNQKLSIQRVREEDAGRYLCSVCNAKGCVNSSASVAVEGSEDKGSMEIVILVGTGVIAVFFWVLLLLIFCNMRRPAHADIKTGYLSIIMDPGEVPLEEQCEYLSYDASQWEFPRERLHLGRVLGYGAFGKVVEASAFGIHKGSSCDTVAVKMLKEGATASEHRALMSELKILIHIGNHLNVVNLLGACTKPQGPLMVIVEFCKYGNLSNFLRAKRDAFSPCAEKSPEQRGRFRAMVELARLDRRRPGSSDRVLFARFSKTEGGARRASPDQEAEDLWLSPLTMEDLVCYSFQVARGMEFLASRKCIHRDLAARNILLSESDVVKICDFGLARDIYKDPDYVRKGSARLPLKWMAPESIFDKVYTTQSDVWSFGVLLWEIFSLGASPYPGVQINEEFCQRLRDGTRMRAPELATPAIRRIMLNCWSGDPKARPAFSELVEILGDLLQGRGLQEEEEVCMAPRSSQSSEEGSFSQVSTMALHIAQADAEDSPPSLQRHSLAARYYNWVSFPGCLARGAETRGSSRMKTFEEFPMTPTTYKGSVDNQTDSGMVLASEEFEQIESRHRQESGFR
procedure summary: flt-4 Alphascreen Tyrosine Kinase assay;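 further: AlphaScreen chemiluminescence read-out of biotinylated poly(Glu,Tyr) 4:1 phosphorylation via streptavidin donor and PY100 anti-phosphotyrosine acceptor beads, ATP near KM, 1 hr kinase reaction, 10-point dose-response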
Type: biochemical
condition details: Table 4, inhibition as IC50 class; read-out: flt4 IC50
pIC50: −log10 of the molar value.
So I've got a bunch of compounds here, and I need their pIC50 values.

Give me pIC50 for each of these compounds, listed below.
1. COc1cc2c(Oc3ccc(NC(=O)C(=O)NCCC(C)(C)C)cc3F)ccnc2cc1OCC1CCNCC1 [Example 264]
2. COc1cc2c(Oc3ccc(NC(=O)C(=O)NCc4cc(C(F)(F)F)ccc4Cl)cc3F)ccnc2cc1OCC1CCNCC1 [Example 234]
3. COc1cc2c(Oc3ccc(NC(=O)C(=O)NCCc4ccc(Br)cc4)cc3F)ccnc2cc1OCC1CCNCC1 [Example 230]
4. COc1cc2c(Oc3ccc(NC(=O)C(=O)NCc4ccc(F)c(C(F)(F)F)c4)cc3F)ccnc2cc1OCC1CCNCC1 [Example 216]
5. COc1cc2c(Oc3ncc(NC(=O)CC(=O)Nc4ccc(F)cc4)cc3Cl)ccnc2cc1OCCCN1CCOCC1 [Example 266]
6. COc1cc2c(Oc3ccc(NC(=O)C(=O)NCc4ccccn4)cc3F)ccnc2cc1OCC1CCNCC1 [Example 274]
7. COc1cc2c(Oc3ccc(NC(=O)C(=O)NCc4ccccc4Cl)cc3F)ccnc2cc1OCC1CCNCC1 [Example 245]
8. COc1ccc(NC(=O)C(=O)Nc2ccc(Oc3ccnc4cc(OCC5CCNCC5)c(OC)cc34)c(F)c2)cc1OC [Example 262]

1. 6.30 to 7.30
2. 6.30 to 7.30
3. 6.30 to 7.30
4. > 7.30
5. 6.30 to 7.30
6. 6.30 to 7.30
7. > 7.30
8. 6.30 to 7.30

Batch: pIC50 for all items listed.
1. COc1cc2c(Oc3ccc(NC(=O)C(=O)NCc4cccc(Cl)c4)cc3F)ccnc2cc1OCC1CCNCC1 [Example 243]
2. COc1cc2c(Oc3ccc(NC(=O)C(=O)NCC(C)c4ccccc4)cc3F)ccnc2cc1OCC1CCNCC1 (stereo not drawn) [Example 229]
3. COc1cc2c(Oc3ccc(NC(=O)C(=O)NCc4cc(F)cc(F)c4)cc3F)ccnc2cc1OCC1CCNCC1 [Example 233]
4. COc1cc2c(Oc3ccc(NC(=O)C(=O)NCCc4ccccc4)cc3F)ncnc2cc1OCC1CCNCC1 [Example 275]
5. COc1cc2c(Oc3ccc(NC(=O)C(=O)Nc4cccc(F)c4)cc3F)ccnc2cc1OCC1CCNCC1 [Example 260]
6. COc1cc2c(Oc3ncc(NC(=O)CC(=O)Nc4ccc(F)cc4)cc3Cl)ccnc2cc1OCCCN1CCCCC1 [Example 265]

1. 6.30 to 7.30
2. > 7.30
3. > 7.30
4. > 7.30
5. 5.30 to 6.30
6. 6.30 to 7.30

State measured pIC50 of the compound COc1cc2c(Oc3ccc(NC(=O)C(=O)NC(C)c4ccc(Br)cc4)cc3F)ccnc2cc1OCC1CCNCC1 (stereo not drawn) [Example 221] with Flt-4 (baculovirus expressed human Flt-4 kinase domain D725-R1298) (Homo sapiens).
6.30 to 7.30
